Let's look at some molecules and their measured pIC50.
biological target: Replicase polyprotein 1ab (Severe acute respiratory syndrome-related coronavirus); assay: Inhibition of SARS coronavirus 3C-like protease using 5-FAM-TSATLQSGFRK(QXL520)-NH2 as substrate preincubated for 5 mins followed by substrate addition measured after 6 mins by FRET assay
pIC50: −log10 of the molar value. Where a name gives a salt, the structure may show the parent alone.

- molecule: "Nc1ccc(F)c(S(=O)(=O)Nc2cccc(C(F)(F)F)c2)c1"
  experimentalSystem: "Replicase polyprotein 1ab (Severe acute respiratory syndrome-related coronavirus)"
  qual: "="
  pIC50: 4.53
- molecule: "COc1ccc(C(=O)Cn2c(NCCO)nc3ccccc32)cc1"
  experimentalSystem: "Replicase polyprotein 1ab (Severe acute respiratory syndrome-related coronavirus)"
  qual: "="
  pIC50: 4.54
- molecule: "CN(CC(=O)NC1CCCC1)S(=O)(=O)c1cccc(Cl)c1"
  experimentalSystem: "Replicase polyprotein 1ab (Severe acute respiratory syndrome-related coronavirus)"
  qual: "="
  pIC50: 6.03
- molecule: "Cn1cnc2cc(NC(=O)c3ccc(Cl)cc3)ccc21"
  experimentalSystem: "Replicase polyprotein 1ab (Severe acute respiratory syndrome-related coronavirus)"
  qual: "="
  pIC50: 4.56
- molecule: "CCOc1ccc(S(=O)(=O)NCc2ccc3c(c2)OCO3)cc1C"
  experimentalSystem: "Replicase polyprotein 1ab (Severe acute respiratory syndrome-related coronavirus)"
  qual: "<"
  pIC50: 3.70
- molecule: "S=C(NCc1cccnc1)SCc1cc(Cl)sc1Cl"
  experimentalSystem: "Replicase polyprotein 1ab (Severe acute respiratory syndrome-related coronavirus)"
  qual: "="
  pIC50: 6.80
- molecule: "COc1ccc(N(CC(=O)NCc2ccco2)S(C)(=O)=O)cc1"
  experimentalSystem: "Replicase polyprotein 1ab (Severe acute respiratory syndrome-related coronavirus)"
  qual: "="
  pIC50: 4.79
- molecule: "O=C(c1cncc(Br)c1)N1CCN(Cc2ccsc2)CC1"
  experimentalSystem: "Replicase polyprotein 1ab (Severe acute respiratory syndrome-related coronavirus)"
  qual: "="
  pIC50: 4.97
- molecule: "C(=C\\c1ccccc1)/C[N+]1(C/C=C/c2ccccc2)CCN(C(c2ccccc2)c2ccccc2)CC1"
  experimentalSystem: "Replicase polyprotein 1ab (Severe acute respiratory syndrome-related coronavirus)"
  qual: "="
  pIC50: 4.53
- molecule: "COCCOCCn1c(CCCO)nc2ccccc21"
  experimentalSystem: "Replicase polyprotein 1ab (Severe acute respiratory syndrome-related coronavirus)"
  qual: "="
  pIC50: 4.59
- molecule: "OCCCc1nc2ccccc2n1CCOc1ccccc1"
  experimentalSystem: "Replicase polyprotein 1ab (Severe acute respiratory syndrome-related coronavirus)"
  qual: "<"
  pIC50: 3.70
- molecule: "CCCCC(CC)CNC(=N)NC(=N)NCCCCCCNC(=N)NC(=N)NCC(CC)CCCC (configuration not stated) [ALEXIDINE DIHYDROCHLORIDE]"
  experimentalSystem: "Replicase polyprotein 1ab (Severe acute respiratory syndrome-related coronavirus)"
  qual: "="
  pIC50: 4.61
